System: NCI-H23 lung
Measurement protocol: NCI tumour cell line growth inhibition, 48 h
Observable: TGI

# Compound, TGI
measured = [
    ("COc1ccc2c(c1)NC(=O)CN2c1nc(NC2CC2)nc2ccccc12", "16.2 µM"),
    ("O=C1C(Cl)N(c2ccc(Cl)cc2Cl)C1c1c[nH]c2ccccc12 (stereo unspecified)", "> 100 µM"),
    ("Cc1ccc(S(=O)(=O)NC(C(=O)O)C(C)C)cc1 (stereo unspecified)", "> 100 µM"),
    ("CCCNC(=S)N=Nc1c(O)[nH]c2ccccc12", "> 100 µM"),
    ("Cn1cc(-c2ccc(-c3cn(C)c4ccc(Cl)cc34)[nH]2)c2cc(Cl)ccc21", "24.7 µM"),
    ("O=c1cc(NCC(O)CN2CCOCC2)n(Cc2ccccc2)c(=O)n1Cc1ccccc1 (stereo unspecified)", "> 100 µM"),
]

Sure, the documented TGI for CCOC(=O)C(NC(=O)CC)(Nc1ccccc1OC)C(F)(F)F (stereo unspecified) is > 100 µM

Sure, the documented TGI for CC1=NN(C(=O)c2ccc(Cl)cc2)C(=O)C1N=Nc1ccc(S(=O)(=O)Nc2ncccn2)cc1 (stereo unspecified) is > 100 µM

Sure, the documented TGI for "CCCN(CCC)c1ccc(CO)c(Cl)c1" is > 100 µM

Sure, the documented TGI for "Cc1cc(C)n(C(=O)CSc2nc3ccc(I)cc3c(=O)n2Cc2ccccc2)n1" is > 100 µM

Sure, the documented TGI for "CC[C@@]1(O)C(=O)OCc2c1cc1n(c2=O)Cc2c-1nc1ccccc1c2Cl" is 0.028 µM

Each recorded value in this set is attributed to PubChem BioAssay (NCI).
